- System: MDA-MB-231 cells
- Assay text: Cell proliferation assay (CellTiter-Glo), MDA-MB-231
- Format: cell-based
- Conditions used: Homo sapiens, MDA-MB-231, 72 h, 72 h treatment, Celltiter-Glo luminescence
Outcome measure: IC50 (nM)

[P] C[C@@H]1CN(CC(=O)N2CC(C)(C)c3c2cc(Cc2ccc(Cl)cc2)c2ncnn32)[C@@H](CN2CCOC[C@H]2C)CN1 [Compound 44]
[Q] C[C@@H]1CN(CC(=O)N2CC(C)(C)c3c2cc(Cc2ccc(F)cc2)c2nc(C(F)(F)F)cn32)C(Cn2ccnc2C(F)(F)F)CN1 (stereo in doubt) [Compound 177]
Problem: Looking at recorded values for IC50, does P or Q come in lower? Lab note: record the label of whichever item you select.
Solution: P

====

- System: MDA-MB-231 cells
- Assay text: Cell proliferation assay (CellTiter-Glo), MDA-MB-231
- Type: cell-based
- Conditions used: Homo sapiens, MDA-MB-231, 72 h, 72 h treatment, Celltiter-Glo luminescence
- Description: Example 238: Cell Proliferation Assay MDA-MB-231 and EVSA-T cells (10000 cells/well) were plated onto 96-well plates (Corning, Cat #3917) in 95 μL of medium (RPMI-1640 containing 10% FBS and MEM containing 10% FBS, respectively). […] After treatment for 72 h, 30 μL of Celltiter-Glo reagent (Promega, Cat #G7573) was added and incubated at room temperature for 15 min, then the luminescent signal was determined using a microplate reader (Biotek, SynergyH1). […]
pIC50: −log10 of the molar value.
Outcome measure: pIC50

[A] C[C@@H]1CN(CC(=O)N2CC(C)(C)c3c2cc(Cc2ccc(F)cc2)c2nc(N(S(C)(=O)=O)S(C)(=O)=O)nn32)[C@@H](CN2CCOC[C@H]2C)CN1 [Example 16]
[B] C[C@@H]1CN(CC(=O)N2CC(C)(C)c3c2cc(Cc2ccc(F)cc2)c2nn(C4CCOCC4)c(=O)n32)[C@@H](CN2CCOC[C@H]2C)CN1 [Compound 190]
[C] C[C@@H]1CN(CC(=O)N2CC(C)(C)c3c2cc(Cc2ccc(F)cc2)c2nn(CC(O)C4CC4)c(=O)n32)[C@@H](CN2CCOC[C@H]2C)CN1 (stereo partly drawn) [Compound 270]
[D] C[C@@H]1CN(CC(=O)N2CC(C)(C)c3c2cc(Cc2ccc(F)cc2)c2nn(CC(N)=O)c(=O)n32)[C@@H](CN2CCOC[C@H]2C)CN1 [Compound 217]
Problem: For the compounds shown above, give the order from largest pIC50 to smallest. Ranked list of labels, please, in the requested order.
Solution: B, C, D, A
(B: 7.85, C: 7.29, D: 6.46, A: 5.20)

[P] C[C@@H]1CN(CC(=O)N2CC(C)(C)c3c2cc(Cc2ccc(F)cc2)c2ncnn32)[C@@H](CN2Cc3cnccc3C2=O)CN1 [Compound 96]
[Q] C[C@@H]1CN(CC(=O)N2CC(C)(C)c3c2cc(Cc2ccc(F)cc2)c2nccn32)[C@@H](CN2CCOC[C@H]2C)CN1 [Example 17]
Problem: Looking at recorded values for pIC50, does P or Q come in lower? Lab note: record the label of whichever item you select.
Solution: Q

[I] C[C@@H]1CN(CC(=O)N2CC(C)(C)c3c2cc(Cc2ccc(F)cc2)n2ccnc32)[C@@H](CN2CCOC[C@H]2C)CN1 [Example 24]
[II] C[C@@H]1CN(CC(=O)N2CC(C)(C)c3c2cc(Cc2ccc(F)cc2)c2ncnn32)[C@@H](CN2CC3CC2CO3)CN1 (stereo partly drawn) [Compound 78]
Problem: Looking at recorded values for pIC50, does I or II come in lower? Lab note: record the label of whichever item you select.
Solution: I
